target: human TLR8 (Homo sapiens (Human)); assay: HEK-Blue human TLR8 cells NF-κB SEAP reporter assay; conditions: stimulation for 20 hours
Sequence (Q9NR97 27-1041): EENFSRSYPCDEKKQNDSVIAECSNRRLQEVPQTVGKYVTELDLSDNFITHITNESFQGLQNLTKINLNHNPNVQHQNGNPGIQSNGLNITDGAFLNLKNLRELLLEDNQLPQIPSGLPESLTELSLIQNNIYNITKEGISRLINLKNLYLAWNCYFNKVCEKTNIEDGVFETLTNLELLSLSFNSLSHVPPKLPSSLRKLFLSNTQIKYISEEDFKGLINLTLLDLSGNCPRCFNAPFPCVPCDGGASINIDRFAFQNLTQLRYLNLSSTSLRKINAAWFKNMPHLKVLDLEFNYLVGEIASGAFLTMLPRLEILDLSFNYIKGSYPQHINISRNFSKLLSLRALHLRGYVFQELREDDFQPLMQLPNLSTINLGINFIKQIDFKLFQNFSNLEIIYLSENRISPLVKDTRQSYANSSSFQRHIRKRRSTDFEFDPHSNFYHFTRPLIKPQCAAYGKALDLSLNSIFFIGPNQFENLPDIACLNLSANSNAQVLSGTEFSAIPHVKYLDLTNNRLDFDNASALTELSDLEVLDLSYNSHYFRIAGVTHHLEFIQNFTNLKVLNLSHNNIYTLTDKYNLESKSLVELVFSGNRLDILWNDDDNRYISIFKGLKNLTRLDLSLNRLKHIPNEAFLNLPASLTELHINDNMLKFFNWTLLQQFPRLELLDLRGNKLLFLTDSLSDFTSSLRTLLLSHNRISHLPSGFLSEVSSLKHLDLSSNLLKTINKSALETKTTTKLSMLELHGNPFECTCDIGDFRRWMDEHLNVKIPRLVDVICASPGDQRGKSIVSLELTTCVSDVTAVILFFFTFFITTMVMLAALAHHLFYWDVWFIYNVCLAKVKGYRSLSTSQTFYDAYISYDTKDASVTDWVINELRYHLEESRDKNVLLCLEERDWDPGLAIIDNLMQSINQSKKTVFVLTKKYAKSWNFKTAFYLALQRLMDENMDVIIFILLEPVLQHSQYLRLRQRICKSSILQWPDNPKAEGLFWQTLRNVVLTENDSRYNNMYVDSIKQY
readout: EC50 (nM)
Answers are plain numbers, in nM.

See these solved cases before continuing.
Query :: Provide EC50 value for the following molecule: CCCN(CCC)C(=O)C1=Cc2ccc(C(=O)N3CC(CNc4ccccc4)C3)cc2N=C(N)C1 [Example 4]
Result :: 10

Query :: Provide EC50 value for the following molecule: CCCN(CCC)C(=O)C1=Cc2ccc(C(=O)N3CCCC(Nc4ccccc4)C3)cc2N=C(N)C1 (stereo not drawn) [Example 23]
Result :: 8

Further cases:
Query :: Provide EC50 value for the following molecule: C/C=C/COC1CN(C(=O)c2ccc3c(c2)N=C(N)CC(C(=O)N(CCC)CCC)=C3)C1 [Example 22]
Result :: 12
